test system: TNFα-FL/Gaussia Luciferase; test: Dox Induced TNFα-FL-Gluc Assay; type: cell-based; conditions: 24 hr Dox induction; 293FRT/TO cells; read-out: 24 hr Dox Inducible TNFaFLGluc 293FRT/TO: Mean IC50
pIC50: −log10 of the molar value.
result type: pIC50

I: O=C(Nc1nc([C@H]2CCCN2c2ccc(OC3CN(C(=O)C4CC4)C3)cc2)cs1)c1cccn1Cc1ccnc(F)c1 [Compound A109]
II: CN(C)C(=O)Nc1ccc(N2CCC[C@@H]2c2csc(NC(=O)c3cccn3Cc3ccnc(F)c3)n2)cc1 [Compound A124]
III: NCc1ccc(N2CCC[C@@H]2c2csc(NC(=O)c3cccn3Cc3ccncc3)n2)cc1 [Compound A44]
IV: O=C(Nc1nc([C@H]2CCCN2c2ccc(OC3=CCNCC3)cc2)cs1)c1cccn1Cc1ccnc(F)c1 [Compound A89]
V: CC(=O)N1CCC(Oc2cc(F)c(N3CCC[C@@H]3c3csc(NC(=O)c4cccn4Cc4ccnc(F)c4)n3)c(F)c2)CC1 [Compound A105]
Rank items: key pIC50, increasing. Please list the labels according to the requested order.
IV, III, V, I, II

====

test system: TNFα-FL/Gaussia Luciferase; test: Dox Induced TNFα-FL-Gluc Assay; type: cell-based; conditions: ratio of TNFaFLGluc IC50 to PD1ssGluc IC50
result type: 24 hr Dox Inducible TNFaFLGluc 293FRT/TO: TNF/PD1

compound=Cc1cc(C(=O)Nc2nc(/C=C/c3cn(C(C)C)cn3)cs2)n(Cc2ccnc(F)c2)c1 value_observed=>28.4
compound="CC1CCc2c(/C=C/c3csc(NC(=O)c4cccn4Cc4ccnc(F)c4)n3)ncn2C1 (stereo not shown)" value_observed=>814

Next compound, please.
Which 24 hr Dox Inducible TNFaFLGluc 293FRT/TO: TNF/PD1 value belongs to O=C(Nc1nc(/C=C/c2cn3c(n2)CCC3)cs1)c1cccn1Cc1ccncc1 ?
>83.9

====

Tested on: IL-2-FL/Gaussia Luciferase
Experiment: Dox Induced IL2-FL-Gluc Assay
Assay type: cell-based
Settings: ratio of IL2FLGluc IC50 to PD1ssGluc IC50
Description: Flp-In 293 T-REx™ cells were transfected with pcDNA™5/FRT/TO plasmid inserted with cDNA encoding Gaussia Luciferase fused to the 3′ end of cDNA encoding full length IL-2 (amino acids 1-153). Transfected cells were selected for resistance to the selectable markers Hygromycin and Blasticidin to create a stable cell line that contained the IL-2-FL/Gaussia Luciferase cDNA insert whose expression was regulated under the T-REx™ system. […]
// reported 24 hr Dox Inducible IL2FLGluc 293FRT/TO: IL2/PD1 for each item listed
Give your answer as a number; write no unit.

compound="O=C(Nc1nc([C@H]2CCCN2c2ccc(C3CCCNC3)cc2)cs1)c1cccn1Cc1ccncc1 (stereo partly drawn)" measurement_target="IL-2-FL/Gaussia Luciferase" value_observed=3.5
compound=CC(=O)N1CCC[C@@H](Oc2ccc(N3CCC[C@@H]3c3csc(NC(=O)c4cccn4Cc4ccnc(F)c4)n3)cc2)C1 measurement_target="IL-2-FL/Gaussia Luciferase" value_observed=2.8
compound=[2H]c1cc([2H])cc(N2CCC[C@@H]2c2csc(NC(=O)c3cccn3Cc3ccnc(F)c3)n2)c1 measurement_target="IL-2-FL/Gaussia Luciferase" value_observed=2.2
compound=CC(=O)N1CCC(Nc2ccc(N3CCC[C@@H]3c3csc(NC(=O)c4cccn4Cc4ccnc(F)c4)n3)cc2)CC1 measurement_target="IL-2-FL/Gaussia Luciferase" value_observed=1.5
compound=CC(=O)N(C)CCOc1ccc(N2CCC[C@@H]2c2csc(NC(=O)c3cccn3Cc3ccnc(F)c3)n2)cc1 measurement_target="IL-2-FL/Gaussia Luciferase" value_observed=1.8

What value of 24 hr Dox Inducible IL2FLGluc 293FRT/TO: IL2/PD1 has been recorded for this entry: CC(C)c1nc(/C=C/c2csc(NC(=O)c3cccn3Cc3ccncc3)n2)co1
29

Data request, read-out 24 hr Dox Inducible IL2FLGluc 293FRT/TO: IL2/PD1, for CC(C)n1cc(/C=C/c2csc(NC(=O)c3cccn3Cc3ccnc(F)c3)n2)nc1C#N
16
